Tested on: 786-0 renal
Protocol Summary: NCI-60 one-dose screen, 48 h (100 = growth as untreated, 0 = no growth, -100 = all killed)
Recorded Conditions: 10 µM unless noted
The panel holds about 83,000 compounds, 20% with a hit somewhere; the sample as a whole holds those more often.

Molecule	Result Units	growth
COc1ccc(-c2nnc3c4[nH]cnc4ncn23)c(OC)c1	%	21.3
CN1CCC[C@@H]1CCO[C@](C)(c1ccccc1)c1ccc(Cl)cc1	%	66.5
COc1ccc(CNC(=O)c2c(C)n([O-])c3ccccc3[n+]2=O)cc1	%	101
N#Cc1c(-c2ccccc2)cc(-c2ccccc2)n(CCCCCCC(=O)O)c1=O	%	105
O=C(CSc1nnc(-c2cc(-c3ccccc3)nc3ccccc23)o1)c1ccc(Br)cc1	%	104
Clc1ccc(C2=NN(c3ccc(Cl)cc3)C(c3cccc(Nc4ccnc5cc(Cl)ccc45)c3)C2)cc1 (configuration not stated)	%	85.3
Cc1cc2c(cc1C)[n+](Cc1ccc3ccccc3c1)cn2Cc1ccc2ccccc2c1	%	-88.9
